Tested on: Neutrophil
protocolNotes: Inhibition of oxidative burst in PMA-stimulated human neutrophils assessed as inhibition of H2O2-induced oxidation of amplex red incubated for 5 mins prior to PMA challenge by fluorescence assay
Type: functional, cell-based
Calls of active or inactive are those of the source. No cut-off for these calls is given here.
propertyName: inhibition

Example entries begin here.
molecule	inhibition
O=c1cc(-c2ccccc2)oc2cccc(O)c12 [5-HYDROXYFLAVONE]	inactive
COc1ccc(-c2cc(=O)c3c(O)cc(O)cc3o2)cc1	inactive
O=c1cc(-c2ccc(O)cc2)oc2ccccc12	inactive
O=c1cc(-c2ccccc2)oc2cc(O)cc(O)c12	inactive

We next turn to a different molecule, shown below.
Which inhibition is reported for this molecule? `O=c1cc(-c2ccccc2)oc2ccccc12`
inactive

---

We begin with a simple list: items and their reported pIC50.
Tested on: Neutrophil
protocolNotes: Inhibition of oxidative burst in PMA-stimulated human neutrophils assessed as inhibition of ROS-induced luminol oxidation incubated for 5 mins prior to PMA challenge by chemiluminescence assay
Format: functional, cell-based
Quick note: pIC50 means taking -log10 of the concentration in moles per liter.

Could you tell me which pIC50 is on file for O=c1cc(-c2ccc(O)c(O)c2)oc2cc(O)cc(O)c12 [LUTEOLIN] ?
5.03

Fill in the blank: the reported pIC50 of O=C1c2c(O)cc(O)cc2O[C@H](c2ccc(O)c(O)c2)[C@H]1O [(+)-TAXIFOLIN] is ____.
4.27

Item under review: `O=c1cc(-c2cccc(O)c2)oc2cccc(O)c12` . Reported pIC50?
4.84

Which pIC50 is listed for `COc1ccc(-c2cc(=O)c3c(O)cc(O)cc3o2)cc1OC` ?
4.24

# input compound: `O=c1cc(-c2cccc(O)c2)oc2cc(O)ccc12` ; wanted: its pIC50
4.43

---

Measured IC50 accompanies every entry in the list below.
System: Neutrophil
protocolNotes: Inhibition of oxidative burst in PMA-stimulated human neutrophils assessed as inhibition of H2O2-induced oxidation of amplex red incubated for 5 mins prior to PMA challenge by fluorescence assay
Format: functional, cell-based
The answer is to be given in µM; state only the numeric part.

Please review the following examples before continuing.
molecule	testSystem	IC50, µM
O=c1cc(-c2cccc(O)c2)oc2cc(O)ccc12	Neutrophil	79.6
O=C1CC(c2ccc(O)c(O)c2)Oc2cc(O)cc(O)c21 (racemic)	Neutrophil	4
O=c1cc(-c2ccc(O)c(O)c2)oc2cc(O)cc(O)c12	Neutrophil	4
COc1cc(-c2cc(=O)c3c(O)cc(O)cc3o2)ccc1O	Neutrophil	8.6
O=c1cc(-c2ccc(O)c(O)c2)oc2cc(O)ccc12	Neutrophil	3.7
O=c1c(O)c(-c2ccc(O)c(O)c2)oc2cc(O)cc(O)c12	Neutrophil	8
COc1ccc(-c2cc(=O)c3c(O)cc(O)cc3o2)cc1O	Neutrophil	10.3
O=c1cc(-c2ccc(O)c(O)c2)oc2cccc(O)c12	Neutrophil	3.2
O=c1cc(-c2ccc(O)cc2)oc2cc(O)cc(O)c12	Neutrophil	16.2
O=C1c2c(O)cc(O)cc2O[C@H](c2ccc(O)c(O)c2)[C@H]1O [(+)-TAXIFOLIN]	Neutrophil	41.3

Record request: IC50 value, item `O=c1cc(-c2ccc(O)c(O)c2)oc2ccccc12`
3.2

---

Tested on: Neutrophil
protocolNotes: Inhibition of oxidative burst in PMA-stimulated human neutrophils assessed as inhibition of ROS-induced luminol oxidation incubated for 5 mins prior to PMA challenge by chemiluminescence assay
Assay type: functional, cell-based
Each entry below carries its recorded pIC50.
Hey, just a heads up that pIC50 is the negative log base 10 of the concentration in molar.

Observe how each entry below is paired with its result.
compound	testSystem	pIC50
O=c1cc(-c2ccc(O)c(O)c2)oc2cccc(O)c12	Neutrophil	5.80
O=c1cc(-c2ccc(O)cc2)oc2ccccc12	Neutrophil	4.39

# get_value(readout='pIC50', item= `O=c1cc(-c2cccc(O)c2)oc2cc(O)cc(O)c12` )
5.00

Value lookup for pIC50; key = `O=c1cc(-c2ccc(O)c(O)c2)oc2cc(O)ccc12`
4.87

Look up pIC50: `O=c1c(O)c(-c2ccc(O)c(O)c2)oc2cc(O)cc(O)c12`
4.59

Form field: reported pIC50 of O=C1CC(c2ccc(O)c(O)c2)Oc2cc(O)cc(O)c21 (racemic)
4.74
